# Tested on: HOP-62 NSCLC
# experimental protocol: NCI-60 one-dose screen, 48 h (100 = growth as untreated, 0 = no growth, -100 = all killed)
# conditions: 10 µM unless noted
The panel holds about 83,000 compounds, 20% with a hit somewhere; the sample as a whole holds those more often.
# Lookup of reported growth keyed by entry
Numbers only; they are read as %.

// below: answered compounds
[[record]]
compound = "Cc1ccccc1-c1cc(Cc2ccccc2O)c(=O)[nH]n1"
numeric_readout = 108

[[record]]
compound = "Nc1ccc(C2=Nc3cccc4cccc(c34)S2)cc1"
numeric_readout = 83.6

[[record]]
compound = "COc1cccc(C2C(C#N)=C(N)Oc3cc(OC)ccc32)c1 (configuration not stated)"
numeric_readout = 24.6

[[record]]
compound = "Clc1ccccc1[C@@H]1C[C@@H]2Cc3cc(Br)c4ccccc4c3N1O2"
numeric_readout = 54.3

[[record]]
compound = "C=C(C)[C@@H]1C[C@H](O)Cc2cc(Cl)cc(Cl)c2N1"
numeric_readout = 96.6


Report growth, nothing else, for this compound: O=c1[nH]c(Cl)nc2c1cnn2-c1ccccc1
91.3

Report growth, nothing else, for this compound: O=Cc1c[nH]c2ccc(NC(=O)OCc3ccccc3)cc12
105

Report growth, nothing else, for this compound: NCCCc1nnc(CCC(=O)c2nc3ccccc3[nH]2)o1
112

Report growth, nothing else, for this compound: O=C1C(=O)c2ccc(Br)cc2-c2cc(Br)ccc21
76.3

Report growth, nothing else, for this compound: CCOC(=O)C(C(C)=O)c1nc2sc3cc(Cl)ccc3n2c(=N)c1C#N (configuration not stated)
102

Report growth, nothing else, for this compound: CSc1ncc2ncn(C3OC(CO)C(O)C3O)c2n1 (configuration not stated)
119

Report growth, nothing else, for this compound: Fc1ccc(-c2nnc(/C=C/c3cn(-c4ccccc4)nc3-c3ccccc3)o2)cc1
87.4

Report growth, nothing else, for this compound: CCCn1cnc2c1c(=O)n(CCCCC(C)=O)c(=O)n2C
101

Report growth, nothing else, for this compound: CN1CCCC1c1cccnc1 (configuration not stated)
113

Report growth, nothing else, for this compound: C=CCOc1ccc2c(c1)CC[C@@H]1[C@@H]2CC[C@@]2(C)[C@H]1CC[C@]2(C)O
109

Report growth, nothing else, for this compound: Cc1cc([N+](=O)[O-])c(C)cc1C(=O)O
103

Report growth, nothing else, for this compound: C=CC1=C(C(=O)O)N2C(=O)[C@@H](NC(=O)/C(=N\O)c3csc(N)n3)[C@H]2SC1 (stereo in doubt)
105
